System: OVCAR-4 ovarian
Test: NCI-60 one-dose screen, 48 h (100 = growth as untreated, 0 = no growth, -100 = all killed)
Conditions: 10 µM unless noted
This is part of a sample that, as a whole, favours compounds with a hit. Of some 83,000 tested, about 20% had one in any assay.
Rule: measured growth below 50% gets met; anything equal to or greater than 50% gets not met.

- CC1=CSC2=NCCN12: not met

Consider Fc1ccc([C@@H]2CCNC[C@H]2COc2ccc3c(c2)OCO3)cc1 . Does its growth lie strictly below 50%?
not met

====

System: NCI-H23 lung
Assay: NCI-60 one-dose screen, 48 h (100 = growth as untreated, 0 = no growth, -100 = all killed)
Conditions: 10 µM unless noted
Compounds without any hit were thinned out: in the full panel of roughly 83,000, 20% have a hit.
Some molecules, each annotated with its measured growth.
Field format: number, assumed %, no unit text.

Past entries and their recorded results:
- COc1ccc(COC(C)=O)cc1: 113
- Cc1cc(Cl)ccc1Nc1nc(C(F)(F)F)ccc1C(=O)NCC(=O)N/N=C/c1c(Cl)cccc1Cl: 74.6
- O=Nc1ccc(O)c(=O)cc1: 70.6
- CSc1ccc2c(c1)N(CCC1CCCCN1C)c1ccccc1S2 (stereo not drawn): 83.9
- COc1ccc(-c2c3c(nn2-c2ccc(N)cc2)CCc2cnoc2-3)cc1OC: 93.4
- O=C(c1ccccc1)c1ccccc1Cl: 100

Give the measured growth for O=C1CN(CO)C(=O)CN1CO
103

State its growth: CC1=NN(c2ccccc2Cl)C(=O)/C1=C\c1cn(S(=O)(=O)c2ccc(C)cc2)c2ccccc12
83.9

Report growth for C[C@@H]1CC[C@H]2[C@@H](C)C(O)O[C@@H]3O[C@]4(C)CC[C@@H]1[C@]32OO4 (stereo partly drawn)
15.4

Kindly indicate its recorded growth. Item: O=C1/C(=N/O)CCc2ccccc21
98.1

Provide only the value of recorded growth for COc1ccc(/C(=C2\O[C@@H]([C@H](O)CO)[C@H]3OC(C)(C)O[C@@H]23)c2cc(OC)c(OC)c(OC)c2)cc1O
89.8
